measurementTarget: AHR (Macaca fascicularis)
protocolText: AHR-dependent gene expression in cynomolgus PBMCs (Quantigene Plex)
Type: cell-based, cynomolgus macaque
measurementParameters: cynomolgus PBMCs ex vivo; read-out: IC50, inhibition of AHR target gene AHR
parameter: IC50 (nM)
Quick note: give the figure in nM, leave out the unit.

Prompt: Given the compound CC(C)c1cnn2c(N[C@@H]3CCc4[nH]c5ccccc5c4C3)nc(-c3cncc(F)c3)nc12 , what is its reported IC50?
Completion: 30

====

measurementTarget: AHR (Macaca fascicularis, UniProt A0A7N9CQA9)
Sequence (A0A7N9CQA9 entry or part of it): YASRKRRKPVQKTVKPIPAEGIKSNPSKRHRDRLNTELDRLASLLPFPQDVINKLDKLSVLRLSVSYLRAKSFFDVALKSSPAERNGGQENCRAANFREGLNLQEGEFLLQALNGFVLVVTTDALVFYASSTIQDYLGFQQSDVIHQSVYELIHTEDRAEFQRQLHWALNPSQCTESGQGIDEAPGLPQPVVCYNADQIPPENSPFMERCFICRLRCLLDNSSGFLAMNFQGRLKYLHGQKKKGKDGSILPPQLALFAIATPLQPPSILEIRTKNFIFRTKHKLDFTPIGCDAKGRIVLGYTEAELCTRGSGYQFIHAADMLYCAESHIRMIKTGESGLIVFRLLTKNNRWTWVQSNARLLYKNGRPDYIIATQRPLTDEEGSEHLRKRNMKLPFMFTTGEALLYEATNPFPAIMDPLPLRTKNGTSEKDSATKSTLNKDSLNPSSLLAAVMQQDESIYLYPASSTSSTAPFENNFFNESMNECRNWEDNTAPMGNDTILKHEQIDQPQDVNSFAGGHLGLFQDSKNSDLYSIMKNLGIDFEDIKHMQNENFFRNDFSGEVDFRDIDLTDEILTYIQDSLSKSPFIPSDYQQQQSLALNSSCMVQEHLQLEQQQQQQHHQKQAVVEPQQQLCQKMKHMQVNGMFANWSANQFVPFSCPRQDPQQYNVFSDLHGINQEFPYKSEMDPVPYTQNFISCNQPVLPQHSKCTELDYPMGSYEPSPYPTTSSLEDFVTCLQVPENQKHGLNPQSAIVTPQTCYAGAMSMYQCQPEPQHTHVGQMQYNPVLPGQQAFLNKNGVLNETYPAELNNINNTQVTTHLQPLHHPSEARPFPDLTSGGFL
protocolText: AHR-dependent gene expression in cynomolgus PBMCs (Quantigene Plex)
Type: cell-based, cynomolgus macaque
measurementParameters: cynomolgus PBMCs ex vivo; read-out: IC50, inhibition of AHR target gene Cyp1B1
parameter: IC50 (nM)
Quick note: give the figure in nM, leave out the unit.

Prompt: Given the molecule CC(C)c1cnn2c(N[C@@H]3CCc4[nH]c5ccccc5c4C3)nc(-c3cncc(F)c3)nc12 , what is its reported IC50?
Completion: 6
